- procedure.text: melting temperature; fluorescence melt of hairpins on a sequencing array, two-state fit, raised by 9.35 °C to match UV melts
- condition.parameters: sodium 0.088 M
Think of 40 °C as a floor: if Tm stands on it or above, it is fulfilled; beneath it, not fulfilled.

Request: Reported Tm at or above 40 °C? GTGTGAGGAAACTCGCAC (((.(((....))).)))
Response: fulfilled

Request: Reported Tm at or above 40 °C? GGCAACGAAAGTTCCGCC ((((((....)))..)))
Response: fulfilled

Request: Reported Tm at or above 40 °C? GATCTAAAGATAGATC ((((((....))))))
Response: not fulfilled

Request: Reported Tm at or above 40 °C? GTGAAATCGAAAGATCAC (((..(((....))))))
Response: not fulfilled

Request: Reported Tm at or above 40 °C? GCTCGCGGAAACGCAAGC (((.(((....))).)))
Response: fulfilled

Request: Reported Tm at or above 40 °C? GATCTATAAGTAGATC ((((((....))))))
Response: fulfilled

Request: Reported Tm at or above 40 °C? GCGTCGCGAAAGCAATGC ((.(.((....)).).))
Response: fulfilled

Request: Reported Tm at or above 40 °C? GTTAATGGAAACATTGAC ((.((((....)))).))
Response: not fulfilled

Request: Reported Tm at or above 40 °C? CGATAACGGAAACGTTCG (((..(((....))))))
Response: not fulfilled

Request: Reported Tm at or above 40 °C? GAGTGAGCGAAAGCTCTC (((..(((....))))))
Response: not fulfilled

Request: Reported Tm at or above 40 °C? CGGATCGGAAACGACCG (((.(((....))))))
Response: fulfilled

Request: Reported Tm at or above 40 °C? GAAAGACCGAAAGGTTTC (((..(((....))))))
Response: not fulfilled

Request: Reported Tm at or above 40 °C? GATCCGGAGGCGGATC ((((((....))))))
Response: fulfilled

Request: Reported Tm at or above 40 °C? GCTGGGCGAAAGCCATGC ((..(((....)))..))
Response: fulfilled

Request: Reported Tm at or above 40 °C? GCGATACGAAAGTACCGC (((.(((....))).)))
Response: fulfilled

Request: Reported Tm at or above 40 °C? GTGTTTGGAAACAAACAC (((((((....)))))))
Response: fulfilled

Request: Reported Tm at or above 40 °C? GCGAAGGTTCGC ((((....))))
Response: fulfilled

Request: Reported Tm at or above 40 °C? GTGGTGCGAAAGCAACAC (((.(((....))).)))
Response: fulfilled

Request: Reported Tm at or above 40 °C? GCCGACGAAAGTCATGGC ((((((....)))..)))
Response: fulfilled

Request: Reported Tm at or above 40 °C? GCTTGGCGAAAGCCTTGC ((..(((....)))..))
Response: fulfilled

Request: Reported Tm at or above 40 °C? GACTGACCGAAAGGTGTC (((..(((....))))))
Response: fulfilled

Request: Reported Tm at or above 40 °C? TATGCGAAAGCATA (((((....)))))
Response: fulfilled

Request: Reported Tm at or above 40 °C? GGAGCCGAAAGGCCTTCC ((((((....)))..)))
Response: fulfilled

Request: Reported Tm at or above 40 °C? GCGCTCGAAAGAGGCGC ((((((....))).)))
Response: fulfilled

----------
- procedure.text: melting temperature; fluorescence melt of hairpins on a sequencing array, two-state fit, raised by 9.35 °C to match UV melts
- condition.parameters: sodium 0.088 M
Task for the reader: assign each of the following sequences its reported Tm.
Form entry: value (°C) — number only.

Tm recorded for this sequence, GATCAAGAATTTGATC ((((((....)))))) , is 49

Tm recorded for this sequence, GGGTTTCGAAAGAAGCCC (((.(((....))).))) , is 57.1

Tm recorded for this sequence, GATGATGCGAAAGCAATC (((..(((....)))))) , is 37.6

Tm recorded for this sequence, GATCTAGCTTTAGATC ((((((....)))))) , is 38.8

Tm recorded for this sequence, GACCGCGAAAGCGAGTC ((((((....))).))) , is 64.1

Tm recorded for this sequence, GCATTGCGAAAGCCTTGC (((..((....))..))) , is 39.3

Tm recorded for this sequence, GCGGTTGGAAACGACCGC (((((.(....).))))) , is 62.9

Tm recorded for this sequence, GATCACCACGTGATC ((((((...)))))) , is 58.9

Tm recorded for this sequence, GAAGCACGAAAGTGATTC (((.(((....))).))) , is 60

Tm recorded for this sequence, GCGTATTCGAAAGAACGC (((..(((....)))))) , is 42.2

Tm recorded for this sequence, GGTGAAGGAAACTCCACC ((((.((....)).)))) , is 39

Tm recorded for this sequence, GCATTTCGAAAGAACTGC (((.(((....))).))) , is 43

Tm recorded for this sequence, GATCCTGTCTAGGATC ((((((....)))))) , is 56

Tm recorded for this sequence, GCGAGCGGAAACGCTTGC ((.((((....)))).)) , is 61.9

Tm recorded for this sequence, GATCTCACCGAGATC ((((((...)))))) , is 55.2

Tm recorded for this sequence, GGTTCACGAAAGTGGACC (((.(((....))).))) , is 63

Tm recorded for this sequence, GATCGAAATATCGATC ((((((....)))))) , is 49

Tm recorded for this sequence, GCTTGGCGAAAGCTACGC ((.(.((....)).).)) , is 43.3

Tm recorded for this sequence, GATCTAGGAAACTAGATC (((((((....))))))) , is 51.9

Tm recorded for this sequence, GAAACAGGAAACCGTTTC (((((.(....).))))) , is 35.8

Tm recorded for this sequence, GATCTCCTTGAGATC ((((((...)))))) , is 54.4

Tm recorded for this sequence, GGCGCAGGAAACTGCACC ((.((((....)))).)) , is 54.4

Tm recorded for this sequence, GGGCCTCGAAAGAGTCCC (((.(((....))).))) , is 54.2

Tm recorded for this sequence, GATCCACCTTTGGATC ((((((....)))))) , is 50.1

Tm recorded for this sequence, GTTAACCGAAAGGTGAAC (((.(((....))).))) , is 48.9

Tm recorded for this sequence, GATCGTAACGACGATC ((((((....)))))) , is 54.9

Tm recorded for this sequence, GCCAGGGGAAACCTTGGC ((((.((....)).)))) , is 53.4

Tm recorded for this sequence, GCGTCTGGAAACAAACGC ((((.((....)).)))) , is 44.5

Tm recorded for this sequence, GACACACGAAAGTGAGTC (((.(((....))).))) , is 56.1

Tm recorded for this sequence, GATCAAGTTGTTGATC ((((((....)))))) , is 45.1

Tm recorded for this sequence, GCCTCAACGAAAGTTGGC (((..(((....)))))) , is 42.9

Tm recorded for this sequence, GGACACGAAAGTGCCTCC ((((((....)))..))) , is 42.1

Tm recorded for this sequence, GGCCTCGAAAGAGCAGCC ((((((....)))..))) , is 47.6

Tm recorded for this sequence, GGGTAGACGAAAGTCCCC (((..(((....)))))) , is 46.5

Tm recorded for this sequence, GCACGGGGAAACCCGCGC ((.((((....)))).)) , is 58.4

Tm recorded for this sequence, GAGTAGGAAACTACTC ((((((....)))))) , is 51.1

Tm recorded for this sequence, GCTTCTGGAAACAGAAGC (((((((....))))))) , is 64.9

Tm recorded for this sequence, GAGGTTGGAAACAGTCTC (((..((....))..))) , is 25.6

Tm recorded for this sequence, GGCGGCGAAAGCCATGCC ((((((....)))..))) , is 59.8

Tm recorded for this sequence, GGAGAGGGAAACCTCTTC (.(((((....))))).) , is 45.8

Tm recorded for this sequence, GTTATACCGAAAGGTAAC (((..(((....)))))) , is 32.8

Tm recorded for this sequence, GGTGAACCGAAAGGTACC (((..(((....)))))) , is 37.8

Tm recorded for this sequence, GAAACCGAAAGGTATTTC ((((((....)))..))) , is 26.6

Tm recorded for this sequence, GATCTGGCCCCAGATC ((((((....)))))) , is 52.9

Tm recorded for this sequence, GATCACGGTCGTGATC ((((((....)))))) , is 60.7

Tm recorded for this sequence, GGACCGGGAAACCGACCC ((..(((....)))..)) , is 31.1

Tm recorded for this sequence, GCATGCGAAAGCAGTTGC ((((((....)))..))) , is 43

Tm recorded for this sequence, GATCTCTTCCGAGATC ((((((....)))))) , is 52.3

Tm recorded for this sequence, TCCCAGAAATGGGA (((((....))))) , is 43.8

Tm recorded for this sequence, GATCAGCTCGCTGATC ((((((....)))))) , is 62.9

These data points were gathered from the array DNA melting data of Ke et al. (doi:10.1101/2024.01.08.574731).
